# Experimental system: 5-hydroxytryptamine receptor 1A (Rattus norvegicus)
# Sequence (P19327 whole entry): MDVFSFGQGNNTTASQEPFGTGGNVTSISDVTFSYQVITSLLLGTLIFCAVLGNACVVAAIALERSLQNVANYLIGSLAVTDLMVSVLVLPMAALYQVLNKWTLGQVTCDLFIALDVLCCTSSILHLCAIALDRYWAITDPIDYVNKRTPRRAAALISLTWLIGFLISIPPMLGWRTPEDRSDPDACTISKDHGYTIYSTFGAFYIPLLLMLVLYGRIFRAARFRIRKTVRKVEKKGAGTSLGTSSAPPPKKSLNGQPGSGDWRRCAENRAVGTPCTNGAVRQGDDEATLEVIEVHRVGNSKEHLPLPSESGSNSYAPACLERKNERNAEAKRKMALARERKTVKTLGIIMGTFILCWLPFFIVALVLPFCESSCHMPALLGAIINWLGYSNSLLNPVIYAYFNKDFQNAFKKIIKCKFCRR
# Format: cell membranes, Membrane
# Description: Binding affinity of compound towards 5-hydroxytryptamine 1A receptor in rat striatal membranes by [3H]OH-DPAT displacement.
Readout name: Ki
Enter the number, and then the unit.

Solved entries:
COc1ccc2ccccc2c1N1CCNCC1	34 nM
COc1ccccc1CCCN(C)CCCCN1C(=O)c2ccccc2C1=O	170 nM
COc1ccccc1CCCNCCCCN1C(=O)c2ccccc2C1=O	110 nM
COc1ccc2[nH]cc(CCN(C)C)c2c1 [MEBUFOTENIN]	10 nM

I have this compound here, CN(CCCCN1C(=O)c2ccccc2C1=O)CCc1ccccc1 , and I need its recorded Ki.
300 nM

// query Ki value for entry COc1ccccc1CCCN(C)C
3200 nM

# input compound: COc1cccc2c1CC(NCCN1C(=O)c3ccccc3C1=O)CC2 (stereo unspecified) ; wanted: its Ki
250 nM

---

# Experimental system: 5-hydroxytryptamine receptor 1A (Rattus norvegicus)
# Protocol description: Binding affinity of compound towards 5-HT 1A receptor by measuring ability to displace [3H]OH-DPAT from 5-hydroxytryptamine 1A receptor in rat hippocampal membranes
Readout name: pKi
Formally, pKi is defined as -log10 of the concentration c, with c in mol/L.

Looking for the measured pKi of O=C1c2ccccc2C(=O)N1CCNCCCOc1cccc2ccccc12 , can you help?
5.88

---

Here the recorded pKi is given for each entry.
# Experimental system: 5-hydroxytryptamine receptor 1A (Rattus norvegicus)
# Protocol description: Binding affinity of compound towards 5-HT 1A receptor by measuring ability to displace [3H]OH-DPAT from 5-hydroxytryptamine 1A receptor in rat hippocampal membranes
In plain terms, pKi is the concentration in mol/L turned into minus its base-10 logarithm.

A selection of reference data follows.
O=C1c2ccccc2C(=O)N1CCCNCCCOc1cccc2ccccc12	7.35
COc1ccccc1N1CCN(CCCCCN2C(=O)c3ccccc3C2=O)CC1	8.30

Name the recorded pKi for CN(C)CCc1ccccc1 .
6.07

---

# Experimental system: 5-hydroxytryptamine receptor 1A (Rattus norvegicus, UniProt P19327)
# Format: cell membranes, Membrane
Quick list: Ki per entry.
Give the quantity in nM, number only.

Answered examples (3):
COc1ccc2[nH]cc(CCNCCCCN3C(=O)c4ccccc4C3=O)c2c1	20
COc1ccc2cccc(N3CCNCC3)c2c1	3.3
COc1cccc2c1CC(NCCCN1C(=O)c3ccccc3C1=O)CC2 (centres undefined)	48

Reported Ki, compound O=C1c2ccccc2C(=O)N1CCCCNCCCOc1cccc2ccccc12 : ____
25
